// provenance: patent US10800792B2

- measured-on: unphosphorylated-BTK kinase domain (UP-BTK), GST-tagged human BTK (389-659aa) (Homo sapiens (Human))
- Sequence (Q06187 389-659): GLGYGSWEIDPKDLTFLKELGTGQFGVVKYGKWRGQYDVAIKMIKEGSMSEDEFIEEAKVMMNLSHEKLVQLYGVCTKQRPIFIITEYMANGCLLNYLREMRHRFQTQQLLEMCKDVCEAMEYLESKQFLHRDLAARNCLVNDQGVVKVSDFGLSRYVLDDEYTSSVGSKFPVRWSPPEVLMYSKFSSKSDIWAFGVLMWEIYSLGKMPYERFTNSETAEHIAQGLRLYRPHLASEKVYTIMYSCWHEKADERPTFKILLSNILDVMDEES
- procedure-summary: BTK kinase Lanthascreen binding assay
- details: pIC50 = negative log of the IC50 in molar; 60 minutes incubation, 50 nM Tracer 236; read-out: BTK_I_binding pIC50 (converted)
One threshold, 20 nM, splits the recorded IC50 values: lower ones are met, equal or higher ones are not met.

compound | group
COc1ccc(N2C(=O)Nc3c(C(=O)N[C@@H]4CCCN(C(=O)/C(C#N)=[13CH]\C5CC5)C4)sc4nccc2c34)c(C)c1 [Example 176] | not met
C=CC(=O)N1CC[C@@H](NC(=O)c2sc3nccc4c3c2NC(=O)N4c2ccc(Oc3ccccc3)c(F)c2C)C1 [Example 7] | met
C=CC(=O)N1C[C@@H](F)[C@@H](NC(=O)c2sc3nccc4c3c2NC(=O)N4c2ccc(Oc3ccccc3)cc2C)C1 (single isomer, unassigned) [Example 28] | met
Cc1cc(Oc2ccccc2)ccc1N1C(=O)Nc2c(C(=O)N[C@@H]3CCCN(C(=O)/C=C/CN)C3)sc3nccc1c23 [Example 27] | not met
C=CC(=O)N1CCC[C@@H](NC(=O)c2sc3nccc4c3c2NC(=O)N4c2ccc(OC3CCCCC3)cc2C)C1 [Example 32] | not met
CCOC(C)(C)C=C(C#N)C(=O)N1CCC[C@@H](NC(=O)c2sc3nccc4c3c2NC(=O)N4c2ccc(Oc3ccccc3)cc2C)C1 (mixture of isomers) [Example 29] | not met
COc1ccc(N2C(=O)Nc3c(C(=O)N[C@@H]4CCCN(C(=O)/C(C#N)=[13CH]/C5CC5)C4)sc4nccc2c34)c(C)c1 [Example 177] | not met
C=CC(=O)N1CCC[C@@H](NC(=O)c2sc3nccc4c3c2NC(=O)N4c2ccc(Oc3ccccc3CC)cc2C)C1 [Example 19] | not met
Cc1cc(OC2CCCCC2)ccc1N1C(=O)Nc2c(C(=O)N[C@@H]3CCCN(C(=O)/C(C#N)=C/C4CC4)C3)sc3nccc1c23 [Example 178] | not met
C=CC(=O)N1CCC[C@@H](NC(=O)c2sc3nccc4c3c2NC(=O)N4c2ccc(Oc3ccccc3)cc2F)C1 [Example 10] | met
Cc1cc(Oc2ccccc2)ccc1N1C(=O)Nc2c(C(=O)NC3CN(C(=O)CCS(C)(=O)=O)C3)sc3nccc1c23 [Example 240] | not met
C=CC(=O)N1C[C@H](O)C[C@@H](NC(=O)c2sc3nccc4c3c2NC(=O)N4c2ccc(Oc3ccccc3)cc2C)C1 [Example 6] | met
COC[C@@H](N)C(=O)N1CCC[C@@H](NC(=O)c2sc3nccc4c3c2NC(=O)N4c2ccc(Oc3ccccc3)cc2C)C1 [Example 111] | not met
Cc1cc(Oc2ccccc2)ccc1N1C(=O)Nc2c(C(=O)NC3CC[C@@H](C)NC3)sc3nccc1c23 (mixture of isomers) [Example 173] | not met
C=C(Cl)C(=O)N1CCC[C@@H](NC(=O)c2sc3nccc4c3c2NC(=O)N4c2ccc(Oc3ccccc3)cc2C)C1 [Example 26] | not met
C=CC(=O)N1C[C@@H](O)C[C@@H](NC(=O)c2sc3nccc4c3c2NC(=O)N4c2ccc(Oc3ccccc3)cc2C)C1 [Example 13] | met
Cc1cc(Oc2ccccc2)ccc1N1C(=O)Nc2c(C(=O)N[C@@H]3CCCN(C#N)C3)sc3nccc1c23 (single isomer, unassigned) [Example 35] | not met
C=CC(=O)N1CCC[C@@H](NC(=O)c2sc3nccc4c3c2NC(=O)N4c2ccc(OC(C)C)cc2C)C1 [Example 33] | not met
COc1ccc(N2C(=O)Nc3c(C(=O)N[C@@H]4CCCN(C(=O)C=[13CH2])C4)sc4nccc2c34)c(C)c1 [Example 110] | not met
Cc1cc(Oc2ccccc2)ccc1N1C(=O)Nc2c(C(=O)N[C@@H]3CCCN(C(=O)/C(C#N)=[13CH]/C4CC4)C3)sc3nccc1c23 [Example 41] | not met
C=CC(=O)N1CC(OC)[C@@H](NC(=O)c2sc3nccc4c3c2NC(=O)N4c2ccc(Oc3ccccc3)cc2C)C1 (stereo in doubt) [Example 34] | not met
C=CC(=O)N1C[C@H](NC(=O)c2sc3nccc4c3c2NC(=O)N4c2ccc(Oc3ccccc3)cc2C)C[C@@H](OC)C1 [Example 8] | met
